These entries and their values trace back to paper PMC6204216.

molecular target: AChE (Homo sapiens, UniProt P22303)
Sequence (P22303 32-617 isoform P22303-2 limits assumed): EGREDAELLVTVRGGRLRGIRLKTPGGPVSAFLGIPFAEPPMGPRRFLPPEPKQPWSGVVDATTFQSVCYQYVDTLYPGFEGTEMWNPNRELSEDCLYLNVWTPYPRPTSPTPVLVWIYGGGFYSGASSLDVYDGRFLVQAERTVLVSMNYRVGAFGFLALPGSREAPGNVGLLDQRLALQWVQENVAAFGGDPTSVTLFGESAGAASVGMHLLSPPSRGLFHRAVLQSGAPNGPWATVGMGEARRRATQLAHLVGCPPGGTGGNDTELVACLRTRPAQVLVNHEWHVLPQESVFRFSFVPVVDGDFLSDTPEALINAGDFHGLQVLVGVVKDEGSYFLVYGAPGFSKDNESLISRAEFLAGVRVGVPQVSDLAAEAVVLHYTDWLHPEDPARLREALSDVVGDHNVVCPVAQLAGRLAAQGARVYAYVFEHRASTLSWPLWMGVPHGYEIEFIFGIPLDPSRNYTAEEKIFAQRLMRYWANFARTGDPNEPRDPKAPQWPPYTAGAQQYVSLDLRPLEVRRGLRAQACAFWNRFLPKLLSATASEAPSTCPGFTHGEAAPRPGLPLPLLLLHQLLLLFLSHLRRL
property name: pKd
# pKd = -log10(concentration in molar units)

Prompt: Read the entry "CNC(=O)Oc1cccc([N+](C)(C)C)c1" and write its reported pKd.
Completion: 5.49

----------
molecular target: AChE (Homo sapiens, UniProt P22303); details: 25 °C, absence of carbamate, second protocol, mean ± SEM of n measurements
Here the recorded k21 × 10^6 (decarbamoylation rate constant) is given for each entry.
Value expressed in min^−1; do not type the unit.

{"compound": "CNC(=O)Oc1cccc2ccccc12 [carbaryl, reference compound]", "recorded value": 11300}
{"compound": "CN(C)C(=O)Oc1cccc([N+](C)(C)C)c1 [neostigmine, reference compound]", "recorded value": 3600}
{"compound": "CCN(CC)C(=O)F [N,N-diethyl F, N,N-diethylcarbamoyl fluoride]", "recorded value": 7}
{"compound": "CCN(C)C(=O)Oc1cccc([N+](C)(C)C)c1 [N-ethyl-N-methyl HTMA]", "recorded value": 150}
{"compound": "CNC(=O)Oc1cccc([N+](C)(C)C)c1 [Monomethyl neostigmine]", "recorded value": 12300}

Next item in the queue.
Prompt: Quote k21 × 10^6 (decarbamoylation rate constant) reported for CCN(CC)C(=O)Oc1cccc([N+](C)(C)C)c1 [N,N-diethyl HTMA] please.
Completion: 16
